tested on: L1210 leukemia ip in BDF1 mice, survival T/C; assay: NCI In Vivo Anticancer Drug Screen. Data for tumor model L1210 Leukemia (intraperitoneal) in B6D2F1 (BDF1) mice; conditions: endpoint: mean survival time; dose: 25.0 mg/kg/injection; schedule: Q04DX003 (ip); vehicle: saline; higher = longer survival
Toxic doses and inconclusive results are not listed.
ENDPOINT: T/C

CCCCCCN : 103 % of control
C=CC(OC)OC : 95 % of control
CC(C)C[As](=O)(O)CC(C)C : 104 % of control
CN(C)CC/C=C1\c2ccccc2CN(C)c2ccccc21 : 97 % of control
Nc1nc2nc(CC(=O)C(=O)O)c(=O)[nH]c2c(=O)[nH]1 : 111 % of control
CN1C2CCC1CN(Cc1ccccc1)C2 : 101 % of control
N#CCCCCCl : 96 % of control
CSc1nccc(=O)n1C : 98 % of control
CNCC(O)c1cccc(O)c1 (stereo not drawn) : 113 % of control
C=CC[n+]1ccccc1Cc1ccccc1 : 107 % of control
C1CCN(CCC2CCCCN2)CC1 (stereo not drawn) : 105 % of control
CCC(C)C(CCCCN1CCOCC1)(CNC(=O)CN(CC)CC)c1cccc2ccccc12 (stereo not drawn) : 98 % of control
CCC1CC(C)C(=O)NC1=O (stereo not drawn) : 110 % of control

Where these numbers come from: PubChem BioAssay AID248
